system: NIH3T3; experiment: Cytotoxic Profiling of Annotated Libraries Using Quantitative High-Throughput Screening (AID 1296008); conditions: Five cell lines viability, CellTiter-Glo ATP luminescence, 48-72 h; active compounds read low; note: % is set by controls: 0 for no effect and ±100 for the full control effect; nearly all actives have a fitted effect of over 60% in size
Inconclusive results are not listed.

{"molecule": "C/C=C/C=C/C(O)=C1\\C(=O)[C@]2(C)C3C(C(=O)CC/C=C/C)=C(O)C4(C)C1[C@]1(C)O[C@@]4(O)[C@@]3(C)O[C@@]12O", "max response / %": 1.07}
{"molecule": "C=CC1(C)C=C2CCC3C(C)(C)C(O[C@@H]4O[C@@H](CO)[C@H](O)[C@H]4O)CCC3(C)C2CC1O[C@@H]1O[C@H](C)[C@H](O)[C@H](O)[C@H]1O (stereo partly drawn)", "max response / %": -6.13}
{"molecule": "CC(C)(C)NCCCNC(=O)c1cccc(Br)c1", "max response / %": 3.37}
{"molecule": "CC(=O)O[C@@H]1[C@@H](O)[C@H](C)O[C@@H](O[C@H]2[C@@H]3C=CO[C@@H](O[C@@H]4O[C@H](CO)[C@@H](O)[C@H](O)[C@H]4O)[C@@H]3[C@@]3(CO)O[C@@H]23)[C@@H]1OC(=O)/C=C/c1ccccc1", "max response / %": -1.99}
{"molecule": "C=C1CCC2C(C)(C)C(O)CCC2(C)C1CCC(C)CCOC(C)=O (stereo not drawn)", "max response / %": -9.96}
{"molecule": "C/C=C(\\C)C(=O)OCC1OC(OC2OC(COC(=O)/C(C)=C/C)C(OC3OC(CO)C(OC(=O)/C(C)=C/C)C(OC(=O)/C(C)=C/C)C3O)C(O)C2O)C(O)C(O)C1OC1OC(CO)C(OC(=O)/C(C)=C/C)C(OC(=O)/C(C)=C/C)C1O (stereo not drawn)", "max response / %": -26.7}
{"molecule": "C[C@H]1C(=O)N2c3ccccc3[C@@]3(O)C[C@@H]4C(=O)N[C@](C)(c5nc6ccccc6c(=O)n54)N1[C@@H]23", "max response / %": -0.721}
{"molecule": "O=C(Nc1ccccc1)N1CCN(Cc2ccc3ccccc3n2)CC1", "max response / %": 1.66}
{"molecule": "O=C(CCc1ccccc1)N1CCC(O)(Cn2cnc3cc(Cl)ccc3c2=O)CC1", "max response / %": -4.94}
{"molecule": "CC(C)=CCC/C(C)=C/Cc1ccc(O)c(C2OC(=O)c3cc(C(=O)O)cc(O)c32)c1O (stereo not drawn)", "max response / %": 0.065}
{"molecule": "C[C@@H]1CCN(C(=O)N2CCCC2)C[C@@H]1N(C)c1ncnc2[nH]ccc12", "max response / %": -9.02}
{"molecule": "C=C1CC[C@@H]2[C@](C)(CO[C@@H]3O[C@H](CO)[C@@H](O)[C@H](O)[C@H]3O)[C@H](O)CC[C@@]2(C)[C@@H]1C/C=C1/C(=O)OC[C@H]1O", "max response / %": 2.12}
{"molecule": "COC(=O)CCC(=O)OC[C@]1(C)CCC[C@@]2(C)C3CC[C@]4(C)C=CC3(CCC12)C4 (stereo partly drawn)", "max response / %": -0.0416}
{"molecule": "N[C@H]1Cc2ccccc2N(O)C1=O", "max response / %": -9.2}
{"molecule": "COc1c2c(c(C)c3c1C(=O)OC3)OC1(C)CC(O)C34OC(OC)(OC3(C)C)C(O)CC4(C)C1C2 (stereo not drawn)", "max response / %": -1.37}
{"molecule": "COc1c(C)c(OCC(O)C(C)(C)O)cc2c1COC2=O (stereo not drawn)", "max response / %": -1.75}
{"molecule": "NCc1c[nH]c(=S)n1[C@@H]1CCc2c(F)cc(F)cc2C1", "max response / %": -1.29}
{"molecule": "O=C(/C=C\\c1ccc(O)cc1)N[C@@H](Cc1ccc(O)cc1)C(=O)O", "max response / %": -0.22}
{"molecule": "COC(=O)C1=COC(OC2OC(CO)C(O)C(O)C2O)C2C1C=CC2(O)CO (stereo not drawn)", "max response / %": 3.54}
{"molecule": "COC(=O)C1=CO[C@@H](O)C2C(CO)=CCC12 (stereo partly drawn)", "max response / %": -2.89}
{"molecule": "CC(=O)O[C@@H]1C[C@@H](OC(C)=O)C(C)(C)/C=C/[C@H](C)[C@H](OC(C)=O)[C@@]2(O)C[C@H](C)[C@H](OC(=O)c3ccccc3)[C@@H]2/C=C/1C", "max response / %": -4.04}
{"molecule": "O=C(O)c1cn(C2CC2)c2cc(N3C[C@@H]4C[C@H]3CN4)c(F)cc2c1=O", "max response / %": -4.63}
{"molecule": "C/C=C/C1=CC2=C(CO1)C(=O)C(C)(O)C(OC(=O)c1c(C)cc(OC)cc1O)C2 (stereo not drawn)", "max response / %": -6.89}
{"molecule": "O=C(O)/C=C/c1ccc(O)c(O[C@@H]2O[C@H](CO)[C@@H](O)[C@H](O)[C@H]2O)c1", "max response / %": 4.37}
{"molecule": "CC(=O)c1ccc(O[C@@H]2O[C@H](CO)[C@@H](O)[C@H](O)[C@H]2O)cc1", "max response / %": -22.7}
{"molecule": "CC(C)(C)NS(=O)(=O)c1cncc(-c2cc(F)c3nc(N)nn3c2)c1", "max response / %": 3.5}
{"molecule": "COc1cc(O)c([C@@H](CC(=O)N2CC(C)CC(C)C2)c2ccc3c(c2)OCO3)c(OC)c1 (stereo partly drawn)", "max response / %": -1.6}
{"molecule": "CC(=O)O[C@@H]1[C@@H](CO)O[C@@](CO)(O[C@H]2O[C@H](COC(=O)/C=C/c3ccccc3)[C@@H](O)[C@H](O)[C@H]2O)[C@H]1O", "max response / %": 1.35}
{"molecule": "CC1(C)C[C@H](O)C[C@@]2(C)OC(=O)C=C12", "max response / %": 2.91}
{"molecule": "CC1(C)CCCC2(C)C1CC=C1C(=O)OC(O)C12O (stereo not drawn)", "max response / %": 0.868}
{"molecule": "CC(=O)C=C=C1C(C)(C)CC(O[C@@H]2O[C@H](CO)[C@@H](O)[C@H](O)[C@H]2O)CC1(C)O (stereo partly drawn)", "max response / %": 4.66}
{"molecule": "O=C(CN1C(=O)C2(CCCC2)NCC1c1cc(F)cc(F)c1)Nc1ccc2c(c1)CC1(C2)C(=O)Nc2ncccc21 (stereo not drawn)", "max response / %": -0.622}
{"molecule": "C[C@H](C/C=C/C(C)(C)O)[C@H]1CC[C@@]2(C)[C@@H]3[C@@H](O[C@@H]4O[C@H](CO)[C@@H](O)[C@H](O)[C@H]4O)C=C4C(CC[C@H](O)C4(C)C)[C@]3(C=O)CC[C@]12C (stereo partly drawn)", "max response / %": 3.81}
